Each entry below carries its reported INHIBITION.
# Tested on: Plasmodium berghei
# Test method notes: Screen against P. berghei liver stage (PbLuc), transformed with Luciferase, at 10uM
# Format: functional, HepG2
# Experimental parameters: tested at 10 uM
Hit rate of the full screen: of about 69,000 compounds, about 8,600 (12%) showed an effect of 50% or more. Shown is part of a subset that was picked to be rich in strong results.
Give the value in % but do not write % after it.

Some entries whose results are on file:
{"Compound": "CC(C)Nc1nc2c(c(NC3CC3)n1)CN(C(=O)Cc1ccsc1)CC2", "Observed": 83.7}
{"Compound": "CC(C)Nc1nc2c(c(NC3CC3)n1)CN(C(=O)c1ccsc1)CC2", "Observed": 79.2}
{"Compound": "CC(C)Nc1nc2c(c(NC3CC3)n1)CCN(Cc1nccn1C)CC2", "Observed": 60.3}
{"Compound": "CC(=O)N1CC(C)CN(C(=O)c2cscn2)c2ccccc21 (configuration not stated)", "Observed": -5.26}
{"Compound": "CC1CN(C(=O)c2cscn2)c2ccccc2S1 (configuration not stated)", "Observed": 63.7}
{"Compound": "CCC1CCCCCN1C(=O)c1nnc2ccccc2c1N (configuration not stated)", "Observed": 40.3}
{"Compound": "COc1ccc2c(c1)OCC(C(=O)NCc1nc3c(s1)CCCC3)C2 (configuration not stated)", "Observed": -23.3}
{"Compound": "CC1CN(C)c2ccccc2CN1C(=O)c1cscn1 (configuration not stated)", "Observed": -4.15}
{"Compound": "CC(C)NC1CCCc2nc(-c3ccccc3)ncc21 (configuration not stated)", "Observed": -36.3}
{"Compound": "CC(C)Nc1nc2c(c(NC3CC3)n1)CN(C(=O)c1ccnnc1)CC2", "Observed": 65.9}

Look at this compound and give its reported INHIBITION. Cc1nc(C(=O)N2CC(C)Sc3ccccc32)cs1 (configuration not stated)
56.8

I would be grateful if you could share the reported INHIBITION for CC1CN(C(=O)c2ccnc(-n3cncn3)c2)c2ccccc2S1 (configuration not stated) .
-40.7

----------
Catalogue of INHIBITION readings, one per entry.
# System: Plasmodium berghei
# Test method notes: Screen against P. berghei liver stage (PbLuc), transformed with Luciferase, at 10uM
# Type: functional, HepG2
# Experimental parameters: tested at 10 uM
In all, about 69,000 compounds went through this assay and about 8,600 (12%) showed an effect of 50% or more. Many of the other results were omitted from the sample, so strong results are more common in it than they were.

Worked set:
{"Compound": "Cc1cc(CN2C[C@@H]3COC[C@@H](C(=O)N4CCCCO4)[C@@H]3C2)no1", "Tested on": "Plasmodium berghei", "INHIBITION": "34.6%"}
{"Compound": "Cc1noc(C)c1CN1C[C@@H]2COC[C@H](C(=O)N3CCCCO3)[C@@H]2C1", "Tested on": "Plasmodium berghei", "INHIBITION": "50.6%"}
{"Compound": "Cc1noc(C)c1CN1C[C@@H]2COC[C@@H](C(=O)N3CCCCO3)[C@@H]2C1", "Tested on": "Plasmodium berghei", "INHIBITION": "39.2%"}

Look up INHIBITION: Cc1noc(C)c1CN1C[C@@H]2COC[C@@H](C(=O)N3CCCO3)[C@@H]2C1
57.9%

Find the recorded INHIBITION belonging to Cc1ccsc1CN(CCN(C)C)Cc1ccccn1 and report it.
35.1%

Consider the compound shown here: Cc1noc(C)c1CN1C[C@@H]2COC[C@H](C(=O)N3CCCO3)[C@@H]2C1 What is its recorded INHIBITION?
62.5%

// query INHIBITION value for entry COCCN(Cc1sccc1C)Cc1nccn1CCOC
16.9%

Using the record for Cc1cc(CN2C[C@@H]3COC[C@H](C(=O)N4CCCCO4)[C@@H]3C2)no1 , report its INHIBITION.
21.8%

// lookup INHIBITION for NC(=O)CN1CCOCC(Cc2cccc(F)c2)C1 (stereo not given)
-44.2%

Which value of INHIBITION has been reported for COCCn1ccnc1CN(Cc1ccccn1)Cc1sccc1C in the records?
71%

----------
# Test system: Plasmodium berghei
# Test method notes: Screen against P. berghei liver stage (PbLuc), transformed with Luciferase, at 10uM
# Format: functional, HepG2
# Experimental parameters: tested at 10 uM
Among all 69,000 compounds or so, about 8,600 (12%) showed an effect of 50% or more. This is one part of a sample in which strong results are shown more often than they occur.
The following molecules are shown together with reported INHIBITION values.
Be sure to follow the number with its unit.

{"Compound string": "N#Cc1cc(F)ccc1NCC1CCN(S(=O)(=O)C(F)F)CC1", "INHIBITION": "65.3%"}
{"Compound string": "c1ccc(OC[C@]23COC[C@H]2CN(c2ncccn2)C3)nc1", "INHIBITION": "31.9%"}
{"Compound string": "COc1cc(N2C[C@@H]3COC[C@]3(COc3ccccn3)C2)ncn1", "INHIBITION": "-6.3%"}

Observed INHIBITION on Plasmodium berghei for N#CC1(C(=O)N2CCN(Cc3cscn3)CC2)CCCCC1 , please.
25.6%

Provide the documented INHIBITION with Plasmodium berghei as the system for O=C(CC1CC1)NC[C@]12COC[C@H]1CN(c1ncc(F)cn1)C2
1.48%

Entry COc1cc(N2C[C@@H]3COC[C@]3(COc3ncccc3F)C2)ncn1 , system Plasmodium berghei: what INHIBITION was measured?
73%

----------
# Tested on: Plasmodium berghei
# Test method notes: Screen against P. berghei liver stage (PbLuc), transformed with Luciferase, at 10uM
# Type: functional, HepG2
# Experimental parameters: tested at 10 uM
Hit rate of the full screen: of about 69,000 compounds, about 8,600 (12%) showed an effect of 50% or more. What follows is part of a selection rich in strong results, with near analogues and random picks from the rest.
Each entry below carries its reported INHIBITION.
Note: unit % is implicit; provide only the numeric part.

What is its INHIBITION for Plasmodium berghei? Entry: CCc1nc2n(n1)CC(Nc1cc(C)nc3ncnn13)CC2 (stereo not given)
3.95

// map COc1cccc(CNC(=O)c2ccccc2-n2cc(CN)cn2)c1 to recorded INHIBITION (system: Plasmodium berghei)
5.11

Form entry - test system: Plasmodium berghei; read-out: INHIBITION; compound: COCC(C)NS(=O)(=O)c1ccc(Br)cn1 (stereo not given)
56

Notebook: pull reported INHIBITION for Plasmodium berghei, entry Cc1cnn(CC(C)NCc2csc(-c3ncccn3)n2)c1 (stereo not given)
-3.2

What INHIBITION appears in the records for this compound with Plasmodium berghei? c1ccc2c(NC3CCc4ncnn4C3)ncnc2c1 (stereo not given)
63.8

Notebook entry, Plasmodium berghei assay: INHIBITION of COc1cccc(-n2nnc(C(=O)N3CCOC(C)C3)c2C)c1 (stereo not given) = ?
14.05

# query: INHIBITION | item CCc1n[nH]c(=O)c(C(=O)N2CCSCC2)c1CC | system: Plasmodium berghei
39.3

# value lookup — system Plasmodium berghei, readout INHIBITION, item CCN(Cc1ccco1)C(C)c1nc(C(C)C)no1 (stereo not given)
-165

----------
Catalogue of INHIBITION values
# Tested on: Plasmodium berghei
# Test method notes: Screen against P. berghei liver stage (PbLuc), transformed with Luciferase, at 10uM
# Type: functional, HepG2
# Experimental parameters: tested at 10 uM
The campaign covered roughly 69,000 compounds. About 8,600 (12%) showed an effect of 50% or more. The sample holds strong results, similar compounds and a random draw of the others, so the mix is not that of the screen.
Use % as the unit, but write only the number.

Use these answered entries as a reference point.
{"Compound": "Cc1cc(CN(C)Cc2ncc(-c3cccs3)o2)no1", "Unit name": "%", "INHIBITION": 1.84}
{"Compound": "CN(C)Cc1nc2c(o1)CN(S(=O)(=O)c1cccs1)C2", "Unit name": "%", "INHIBITION": 34}

Which INHIBITION is listed for CN(Cc1nc(Cc2cccc(C(F)(F)F)c2)no1)C1CCCCC1 ?
43.9

I am curious: what INHIBITION value has been reported for Cc1csc2cc(C(=O)NC3CCCC3)cnc12 ?
-76.5

Sample CCN1CCC2(CCN(c3ncccn3)CC2)C1=O — what was its INHIBITION?
-12.2

Consider the compound Cc1cc(C)n(CC2CN(Cc3nnc(C)o3)CCO2)n1 (stereo not drawn) and give its measured INHIBITION.
5.1

GET /values?readout=INHIBITION&item= CCN(CC)Cc1nc2c(o1)CN(S(=O)(=O)c1cccs1)C2
57.5

Look up INHIBITION: CN(Cc1ccccc1F)C(=O)COC(=O)c1cc(Cl)c[nH]1
29.9
